Measured ^3H-DNA, listed per entry.
System: Hep G2 (2.2.15)-Zellen
Experiment: DNA synthesis of Hep G2 (2.2.15) cells (acid-insoluble radioactivity after 3H-thymidine or 3H-deoxyadenosine)
Format: cell-based, menschlichen
Conditions: nucleoside 0,003 µM; 4 days, then 24 h label; mean ± SD of five experiments
Source text: Die Testung der antiviralen Wirksamkeit der Nucleoside auf zelluärer Ebene erfolgte an einer menschlichen Hepatoblastom-Zellinie, die mit dem HBV-Genom tranfiziert wurde und sowohl das Oberflächenantigen des Virus (HBsAg) als auch die HBV-DNA permanent produziert und infektiöse Viruspartikel in das Medium abgibt (Hep G2-Zellen, Klon 2.2.15, Sells et al. Proc.Natl.Acad. Sci. 84, 1005 (1987)). […]
Answer with a number only, understood to be in dpm/Kultur.

Past entries and their recorded results:
>  <molecule>
Nc1ncnc2c1ncn2[C@H]1C=C[C@@H](CO)O1 [2′,3′-Didehydro-2′,3′-didesoxyadenosin]

>  <system_tested>
Hep G2 (2.2.15)-Zellen

>  <^3H-DNA, dpm/Kultur>
19650

$$$$
>  <molecule>
Cc1cn([C@H]2C[C@H](N)[C@@H](CO)O2)c(=O)nc1N

>  <system_tested>
Hep G2 (2.2.15)-Zellen

>  <^3H-DNA, dpm/Kultur>
16020

$$$$
>  <molecule>
Cc1cn([C@@H]2O[C@H](CO)[C@@H](O)[C@@H]2O)c(=O)nc1N

>  <system_tested>
Hep G2 (2.2.15)-Zellen

>  <^3H-DNA, dpm/Kultur>
17755

$$$$

*Q* Any idea what its ^3H-DNA is? The molecule is Cc1cn([C@H]2C[C@H](F)[C@@H](CO)O2)c(=O)nc1N
*A* 13270
